Values compiled from patent US20200261421A1.

Parameter 'readout' = pIC50; parameter 'system' = UniProt P04585.
pIC50: −log10 of the molar value.

{"columns": ["Compound", "pIC50"],
 "data": [
  ["CN(Cc1ccc(F)cc1)C(=O)c1ccnc(CN2C(=N)NC(c3ccccc3)(c3ccccc3)C2=O)c1 [Example 90]", 7.61],
  ["CN(Cc1ccc(F)cc1)C(=O)c1cccc(CN2C(=N)NC(c3ccccc3)(c3ccccc3)C2=O)c1 [Example 32]", 7.71],
  ["CC(C)CC1(CC(C)C)NC(=N)N([C@H](C)c2cccc(C(=O)N(C)Cc3ccc(F)cc3)c2)C1=O [Example 70]", 7.00],
  ["CC(C)CCC1(c2ccccc2)NC(=N)N(Cc2cccc(C(=O)N(C)[C@H](C)c3ccc(F)cc3)c2)C1=O (stereo partly shown) [Example 24]", 7.88],
  ["CN(C)C(=O)c1cccc(CN2C(=N)NC(c3ccccc3)(c3ccc(Br)cc3)C2=O)c1 (stereo not shown) [Example 62]", 7.11],
  ["CN(Cc1ccc(Cl)cc1)C(=O)c1cccc(CN2C(=N)NC(c3ccc(F)cc3)(c3ccccn3)C2=O)c1 (stereo not shown) [Example 39]", 7.61],
  ["CN(Cc1ccc(Cl)cc1)C(=O)c1cccc(CN2C(=N)NC(c3ccccc3)(c3ccccc3)C2=O)c1 [Example 36]", 7.66]
]}
